Data provenance is PubChem BioAssay.

- test details: antimalarial activity against Dd2 strain (AID 2302);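 also: 0% = DMSO untreated growth and 100% = chloroquine plus artemisinin killed control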
- test parameters: P. falciparum Dd2 in RBCs, LDH growth readout, 72 h; at 2 µM
The source made the active and inactive calls.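 The calls were made as follows: active = growth inhibition above 50% at the single 2 µM test dose, taken to imply half-maximal potency below 2 µM; inactive = the rest.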
Outcomes you can answer with include only these: 1 (active), -1 (inactive)

Consider the following illustrative entries.
>>> print(df.to_string())
                                   compound  class_name
0  Cc1c(CNCCCNc2nc3ccccc3[nH]2)sc(C(F)F)c1Br          -1
1   Cc1sc(CNCCCNc2cc(=O)c3ccccc3[nH]2)cc1Br           1
2  Cc1ccc2cc(NC(=O)c3cccc(C(=O)Nc4ccc5nc(C)ccc5c4)n3)ccc2n1          -1

Given OCCN1CCN(Cc2ccc(-c3ccc(-c4nc5ccc(F)cc5[nH]4)cc3)cc2)CC1 , state the outcome it received in this test.
1

Please do the same for COc1ccccc1C(=O)Nc1ccc(Nc2nc(C)cc(N(C)C)n2)cc1 as well.
1

Please do the same for CCCOc1ccc(NC(=O)c2cccs2)cc1Cl as well.
1

Please do the same for CC1CCCN(Cc2c(O)ccc3c(=O)c(-c4nc5ccccc5s4)c(N)oc23)C1 (stereo not given) as well.
1

Please do the same for COc1cc(NCC(C)CNCc2cn(Cc3ccccc3)c3ccccc23)nc2ccccc12 (stereo not given) as well.
1

Please do the same for Cc1cccc2[nH]c(-c3cccc(-c4ccc(C(=O)N5CCCCC5C(C)O)cc4)c3)nc12 (stereo not given) as well.
1

Please do the same for c1ccc(-c2ccc3c(Nc4ccc5[nH]ncc5c4)ccnc3c2)nc1 as well.
1

---

# inhibition values compiled below
- test details: human hepatoma cell viability loss – ATP luminescence, cytotoxicity control for P. falciparum antimalarial project, primary screen (AID 2303);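 also: 0% = DMSO wells and 100% = digitonin-killed cells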
- test parameters: HepG2 viability, 24-48 h, at 10 µM, hits give high values
Please give a number only; it is taken to be in %.

>>> print(df.to_string())
                                   compound  value_kind  measured_value
0  Cc1cc(-c2cccc(CNC3CCN(C)CC3)c2)ccc1S(=O)(=O)NCCN1CCCC1  inhibition              18

Form field: reported inhibition of CCCNCc1ccc(-c2ccc(CN(CCOC)C(=O)CCc3ccc(OC)cc3)cc2)nc1
11

Please do the same for CC(C)n1cc(CN2CCCC(C(=O)Nc3cccc(-c4cc5ccccc5[nH]4)c3)C2)cn1 (stereo not given) as well.
34

Please do the same for CCCc1ccc(S(=O)(=O)NC2CCN(C(=O)Nc3ccc(I)cc3)CC2)cc1 as well.
8

Please do the same for CCCOC(=O)c1ccc(OCCCON2C(N)=NC(N)=NC2(C)C)cc1 as well.
61

Please do the same for CCOC(=O)c1cc(C(=O)NCCCCN2CCC(c3cn(C)c4ccccc34)CC2)ccc1-c1ccc(C(F)(F)F)cc1 as well.
25

Please do the same for O=C(Nc1cccc(-c2cc(-c3c(Cl)cccc3Cl)no2)c1)c1cncc(-c2cccs2)c1 as well.
-1

Please do the same for Cc1cc(NC(=O)NCCN2CCC(NS(=O)(=O)c3ccccc3Cl)C2)c2ccccc2n1 (stereo not given) as well.
1

Please do the same for Cc1cc2nc(/N=C(\N)NC(=O)NC3CCCCC3)nc(C)c2cc1C as well.
20

Please do the same for NC(N)=NC(=O)Nc1cc(Br)c(Cl)c(Br)c1 as well.
0

Please do the same for COc1cccc(-c2ccc3c(-c4cccc(S(C)(=O)=O)c4)cnc(N)c3c2)c1 as well.
45

---

- test details: inhibition of 3D7 malaria parasite growth – strain 3D7 (AID 2306);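 also: 0% = DMSO wells and 100% = chloroquine plus artemisinin control wells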
- test parameters: P. falciparum 3D7 erythrocytic growth, LDH absorbance, 72 h; at 2 µM; hits give high values
Active and inactive are the calls of the source. No rule for the calls is given here.
# growth inhibition values compiled below

Known results for compounds:
>>> df
                           structure_smiles         value_kind  measured_value
0  O=C(Nc1ccc2c(c1)CCN(C1CCC1)CC2)c1ccc(-n2ccnc2)cn1  growth inhibition    92% (active)
1  COc1ccc(Nc2nccc(NCCNC(=O)Nc3cc(C)ccc3C)n2)cc1  growth inhibition    85% (active)
2  Clc1ccc(-c2cc(-c3csc(NCCN4CCOCC4)n3)on2)c(Cl)c1  growth inhibition    97% (active)
3     Oc1cccc(Nc2ccnc3cc(-c4ccccn4)ccc23)c1  growth inhibition    96% (active)
4            COc1ccc(-c2csc3ncnc(Cl)c23)cc1  growth inhibition    96% (active)
5  O=C(N[C@H](Cc1ccc(Cl)cc1)C(=O)N1CCN(c2ccnc3cc(Cl)ccc23)CC1)[C@H]1Cc2ccccc2CN1  growth inhibition    85% (active)
6  c1ccc(COc2ccccc2COc2ccccc2-c2ccc3cccnc3n2)cc1  growth inhibition    87% (active)
7  Cc1ccc2nc3c(cc(C(=O)NCc4ccccc4)c(=N)n3CCCn3ccnc3)c(=O)n2c1  growth inhibition    93% (active)
8  Cc1nnc2c(NC(=O)/C=C/c3ccc(OC(F)(F)F)cc3)cc3cc(Cl)ccc3n12  growth inhibition    94% (active)

Form field: reported growth inhibition of CCOC(=O)c1cc(C(=O)NCCCCN2CCC(c3cn(C)c4ccccc34)CC2)ccc1-c1ccc(C(F)(F)F)cc1
91% (active)

---

- test details: human hepatoma cell viability loss – ATP luminescence, cytotoxicity control for P. falciparum antimalarial project, primary screen (AID 2303);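 also: 0% = DMSO wells and 100% = digitonin-killed cells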
- test parameters: HepG2 viability, 24-48 h, at 10 µM
Active and inactive are the calls of the source.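 Rule for the calls: active = inhibition above 50%; inactive = the rest.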
Outcomes you can answer with include only these: true (active), false (inactive)

>>> df
                                   compound  class_name
0  O=C(Nc1ccc(F)cc1)c1ccc(C(=O)NC2CCN(CC3CCCCC3)CC2)cc1       false
1  O=C(Nc1ccsc1)Nc1cccc(-c2cccc(-c3nc4ccccc4[nH]3)c2)c1        true
2  COc1ccc(Br)cc1C1[C@@H]2C(=O)N(c3ccc(Br)cc3)C(=O)[C@@H]2C2(C(=O)O)CC(OCc3ccccc3)CN12 (some centres undefined)       false
3  O=C(Nc1ccc(Br)cc1)Nc1ccc(Cn2ncc(N3CCCNCC3)c(Cl)c2=O)cc1       false
4  COc1cc2nc(N3CCC(CNC(=O)c4ccc(-c5ccc(C(=O)N(C)C)cc5)cc4)CC3)nc(N)c2cc1OC       false

Given Clc1ccc(OCCC2CCN(CCCCCCN3CCCCC3)CC2)cc1Cl , state the outcome it received in this test.
true

Please do the same for COc1ccc(C2(CNCC(O)c3cccc([N+](=O)[O-])c3)CCCCC2)cc1OC (centres undefined) as well.
false

Please do the same for CCCN=CNc1cc(-c2csc(N=C(N)N)n2)cc([N+](=O)[O-])c1 as well.
false

Please do the same for O=C(Nc1cccc(CN2CCCN(CC3CC3)CC2)c1)c1ccc(-c2ccccc2)cc1 as well.
false

---

- test details: human hepatoma cell viability loss – ATP luminescence, cytotoxicity control for P. falciparum antimalarial project, primary screen (AID 2303);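 also: 0% = DMSO wells and 100% = digitonin-killed cells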
- test parameters: HepG2 viability, 24-48 h, at 10 µM
Calls of active or inactive are those of the source.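 Rule for the calls: active = inhibition above 50%; inactive = the rest.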
Outcomes you can answer with include only these: 1 for active, 0 for inactive

Given Cn1ncc2c3c(CCN4CCC(NCc5ccc6c(c5)NC(=O)CO6)CC4)c(Cl)cnc3ccc21 , state the outcome it received in this test.
0

---

- study target: Plasmodium falciparum protein kinase 6 (PK6, PF3D7_1337100)
- test details: PfPK6 kinase inhibitors, biochemical, TCAMS library (AID 1159586)
- test parameters: recombinant PfPK6, Kinase-Glo ATP depletion luminescence
Results with a measured potency or affinity are listed apart. Active and inactive are the calls of the source. How the calls were made is not given here.
value kind: outcome

Known results for compounds:
>>> print(df.to_string())
                                   compound  measured_value
0  CCn1c(-c2nc(-c3ccc4c(c3)OCO4)cnc2N)nc2cnccc21        inactive
1  O=C(/C=C/c1ccc(Cl)c(Cl)c1)NCCCCCN1CCC(CCNC(=O)C2(c3ccc(Cl)cc3)CC2)CC1        inactive
2  CCc1c(CCNCCCCCCNCc2ccc3c(c2CC)OCO3)ccc(OC)c1OC        inactive
3  O=C(Cc1cnc[nH]1)Nc1cccc(-c2cccc(-c3nc4ccc(C(F)(F)F)cc4[nH]3)c2)c1        inactive

Form field: reported outcome of COc1ccc2nccc([C@@H](O)CN3CCC(NCc4ccc5c(c4)NC(=O)C(C)(C)O5)CC3)c2c1
inactive

Please do the same for Cc1cc(C(=O)CSc2nc3ccccc3n2-c2ccccc2)c(C)n1C1CCS(=O)(=O)C1 (centres undefined) as well.
inactive

Please do the same for c1cncc(Oc2ccc(Nc3ccnc4cc(-c5cccc(CN6CCCCC6)c5)ccc34)cc2)c1 as well.
inactive

Please do the same for N=c1n(Cc2ccccc2)c2ccccc2n1CC(O)c1ccc(Cl)cc1 (centres undefined) as well.
inactive

Please do the same for CN(c1ccc(NC(=O)c2ccc(F)cc2)cc1)C1CCN(Cc2cccc(F)c2)C1 (centres undefined) as well.
inactive
